- STUDY TARGET: sec7-domains of cytohesin-2 (ARNO) (Homo sapiens)
- Construct: ARNO-Sec7 (amino acids 50-255 of ARNO) were expressed in Escherichia coli; inferred from pET15 vector and Ni-NTA purification
- Sequence (Q99418 50-255): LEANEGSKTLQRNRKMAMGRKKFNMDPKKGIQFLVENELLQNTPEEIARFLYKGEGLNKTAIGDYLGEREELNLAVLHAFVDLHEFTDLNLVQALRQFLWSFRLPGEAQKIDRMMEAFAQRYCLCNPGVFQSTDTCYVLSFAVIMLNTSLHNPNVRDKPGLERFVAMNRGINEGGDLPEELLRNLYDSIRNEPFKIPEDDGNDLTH
- ASSAY SUMMARY: guanine nucleotide exchange assay (GDP/GTP exchange on [Δ17]ARF1, tryptophan fluorescence)
- RUN CONDITIONS: 250 nM [Δ17]ARF1, 10 nM ARNO-Sec7, 50 µM GTP, PBS pH 7.4, 37°C; read-out: IC50 value measured for the isolated Sec-7 domain of cytohesin-2
MEASUREMENT NAME: pIC50
// field semantics: pIC50 = negative decimal log of concentration (mol/L)

Some entries whose results are on file:
{"COMPOUND": "C=CCn1c(SCC(=O)Nc2nsc(-c3ccccc3)n2)nc2scc(-c3ccccc3)c2c1=O", "STUDY TARGET": "sec7-domains of cytohesin-2 (ARNO) (Homo sapiens)", "pIC50": 5.68}
{"COMPOUND": "CC(C)(C)c1ccc(C(=O)Nc2ccc(NC(=S)NC(=O)c3cccs3)cc2)cc1", "STUDY TARGET": "sec7-domains of cytohesin-2 (ARNO) (Homo sapiens)", "pIC50": 5.10}
{"COMPOUND": "COc1nc(-c2ccc3c(c2)OCO3)n(-c2ccc(NC(=O)CSc3ccccc3)cc2)n1 [SecinH3, reference compound]", "STUDY TARGET": "sec7-domains of cytohesin-2 (ARNO) (Homo sapiens)", "pIC50": 4.94}

Turning now to a further record.
So what does the record say about pIC50 for CC(C)(C)c1ccc(C(=O)Nc2ccc(NC(=O)/C=C/c3ccco3)cc2)cc1 ?
5.51
